Molecular target: T1, DFNB31_1, Q9P202
T1 sequence (Q9P202 135-233, limits assumed, looked up): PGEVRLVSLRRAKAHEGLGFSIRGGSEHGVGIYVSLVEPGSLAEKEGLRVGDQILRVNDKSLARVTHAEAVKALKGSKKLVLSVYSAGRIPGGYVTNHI
Assay: holdup assay
Design: key: below the threshold = too weak to quantify, mostly under pKd 3.1 to 4
Conditions: plain residues with an end cap or a label only (N-terminal biotin on a linker: ado-ado)
ASSAY ENDPOINT: pKd

binder="CLREWCDAFL [BANF1, O75531]" assay_endpoint=pKd obs_value="below the threshold"
binder="AKPSRISTVV [IQSEC2, Q5JU85]" assay_endpoint=pKd obs_value="below the threshold"
binder="QGLAERISVL [PRKD2, Q9BZL6]" assay_endpoint=pKd obs_value="below the threshold"
binder="PAPSSGKDYV [CLDN1, O95832]" assay_endpoint=pKd obs_value="below the threshold"
binder="DTTVPESEDL [MYOZ2, Q9NPC6]" assay_endpoint=pKd obs_value="below the threshold"
binder="LKVPPEERLI [CRB2, Q5IJ48]" assay_endpoint=pKd obs_value="below the threshold"
binder="EKKTLIGIKL [GOT1L1, Q8NHS2]" assay_endpoint=pKd obs_value="below the threshold"
binder="TSSMRGMDAV [RSRC2, Q7L4I2]" assay_endpoint=pKd obs_value="below the threshold"
binder="QKNRKAQEDL [CES3, Q6UWW8]" assay_endpoint=pKd obs_value="below the threshold"
binder="KSGKQTMLVV [TRIM29, Q14134;Q14134-2]" assay_endpoint=pKd obs_value="below the threshold"
binder="LSEFKAMDSI [CTNNA1, P35221]" assay_endpoint=pKd obs_value="below the threshold"
binder="IKAIVDLTGL [TRAF2, Q12933]" assay_endpoint=pKd obs_value="below the threshold"
binder="HLRARKSEWV [GJD4, Q96KN9]" assay_endpoint=pKd obs_value="below the threshold"
binder="RRLPGKETMA [GRIK2, Q13002]" assay_endpoint=pKd obs_value="below the threshold"
binder="VRNLPESEEL [MYOZ3, Q8TDC0]" assay_endpoint=pKd obs_value="below the threshold"
binder="PRISRSQSEL [CCDC134, Q9H6E4]" assay_endpoint=pKd obs_value="below the threshold"
binder="EALLQMESVA [CAVIN3, Q969G5]" assay_endpoint=pKd obs_value="below the threshold"
binder="SARSRLSSNL [HCN2, Q9UL51]" assay_endpoint=pKd obs_value="below the threshold"
binder="SKENVQETQI [LRRC4B, Q9NT99]" assay_endpoint=pKd obs_value=5.32
binder="PKRSFIESNV [TANC1, Q9C0D5]" assay_endpoint=pKd obs_value=3.83
binder="IPLDGETEEL [MYOZ1, Q9NP98]" assay_endpoint=pKd obs_value="below the threshold"
binder="NLSIEKETKL [ASNSD1, Q9NWL6]" assay_endpoint=pKd obs_value=4.41
binder="LPAHHNATRL [SLC34A1, Q06495]" assay_endpoint=pKd obs_value=3.73
